Measured values drawn from patent US12637435B2 for this set.

- Target Of Assay: recombinant human DHODH (Homo sapiens)
- Construct: DHODH, 31-395aa, Human, His tag, E. coli, ATGP1615; His tag
- Assay Remarks: DHODH enzyme reaction inhibition test (DCIP-coupled assay)
- Details: recombinant human DHODH 0.175 μg/mL, DCIP absorbance 600 nm, 50 minutes, pH 8.0; read-out: Enzyme reaction inhibitory effect (IC50)
pIC50: −log10 of the molar value.
For each record, write down the corresponding pIC50.

Example results:
>>> data_value("C[C@H](Oc1c(Nc2ncc(C3CC3)nc2C(=O)NS(C)(=O)=O)cccc1C1CCOCC1)C(F)(F)F [Example 3-13]")
"7.00 to 8.00"
>>> data_value("N#Cc1ccc(-c2cc(F)cc(Nc3ncc(C4CC4)nc3C(=O)NS(N)(=O)=O)c2OC(F)F)cc1 [Example 3-54]")
"7.00 to 8.00"
>>> data_value("N#Cc1ccc(-c2cccc(Nc3ncc(C4CC4)nc3C(=O)O)c2OCC(F)(F)F)cc1 [Example 2-4]")
"> 8.00"
>>> data_value("Cc1cnc(Nc2cccc(C3=CCOCC3)c2OCC(F)(F)F)c(C(=O)NS(C)(=O)=O)n1 [Example 3-67]")
"7.00 to 8.00"
>>> data_value("CS(=O)(=O)NC(=O)c1nc(C2CC2)cnc1Nc1cccc(-c2cccc(C#N)c2)c1OCC(F)(F)F [Example 3-45]")
"> 8.00"
>>> data_value("CCOc1c(C2=CCOCC2)ccc(F)c1Nc1ncc(C2CC2)cc1C(=O)O [Example 2-14]")
"> 8.00"
>>> data_value("NS(=O)(=O)NC(=O)c1nc(C2CC2)cnc1Nc1cccc(C2CCOCC2)c1OC(F)F [Example 3-50]")
"> 8.00"

Read the next record carefully.
Q: // lookup pIC50 for N#CNC(=O)c1cc(C2CC2)cnc1Nc1cccc(-c2ccc(C#N)cc2)c1OCC(F)(F)F [Example 3-39]
Result: > 8.00

====

- Target Of Assay: recombinant human DHODH (Homo sapiens, UniProt Q02127)
- Construct: DHODH, 31-395aa, Human, His tag, E. coli, ATGP1615; His tag
- Sequence (Q02127 31-395): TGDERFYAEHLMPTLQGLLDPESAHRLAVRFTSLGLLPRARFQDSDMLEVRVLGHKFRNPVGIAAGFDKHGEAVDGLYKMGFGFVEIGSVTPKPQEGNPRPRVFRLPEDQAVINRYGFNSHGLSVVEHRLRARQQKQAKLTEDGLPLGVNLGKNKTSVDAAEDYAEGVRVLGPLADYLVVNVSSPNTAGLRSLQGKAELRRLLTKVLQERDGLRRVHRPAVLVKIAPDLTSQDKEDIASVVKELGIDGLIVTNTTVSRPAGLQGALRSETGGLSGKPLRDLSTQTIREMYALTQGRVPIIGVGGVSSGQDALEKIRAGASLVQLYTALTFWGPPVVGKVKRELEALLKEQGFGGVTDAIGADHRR
- Assay Remarks: DHODH enzyme reaction inhibition test (DCIP-coupled assay)
- Details: recombinant human DHODH 0.175 μg/mL, DCIP absorbance 600 nm, 50 minutes, pH 8.0; read-out: Enzyme reaction inhibitory effect (IC50)
What IC50 was measured for each of the following?

>>> data_value("Cc1ccc(-c2cccc(Nc3ncc(C4CC4)nc3C(=O)O)c2OCC(F)(F)F)c(C)n1")
"10 to 100 nM"
>>> data_value("N#CNCc1nc(C2CC2)cnc1Nc1cccc(C2=CCOCC2)c1OCC(F)(F)F")
"10 to 100 nM"
>>> data_value("CCCc1c(Nc2ncc(C3CC3)nc2C(=O)NS(N)(=O)=O)cccc1C1CCOCC1")
"< 10 nM"
>>> data_value("O=C(O)c1cc(C2CC2)cnc1Nc1cccc(C2=CCOCC2)c1OCC(F)(F)F")
"< 10 nM"
>>> data_value("N#CNC(=O)c1nc(C2CC2)cnc1Nc1cccc(C2CCOCC2)c1OCC(F)(F)F")
"< 10 nM"
>>> data_value("CONC(=O)c1nc(C2CC2)cnc1Nc1cccc(C2CCOCC2)c1O[C@@H](C)C(F)(F)F")
"10 to 100 nM"
>>> data_value("CONC(=O)c1nc(C2CC2)cnc1Nc1cccc(C2=CCOCC2)c1OCC(F)(F)F")
"< 10 nM"
>>> data_value("CCc1c(Nc2ncc(C3CC3)cc2C(=O)O)cccc1C1CCOCC1")
"< 10 nM"
>>> data_value("N#Cc1cccc(-c2cccc(Nc3ncc(C4CC4)nc3C(=O)O)c2OCC(F)(F)F)c1")
"< 10 nM"
>>> data_value("O=C(O)c1cc(C2CC2)ncc1Nc1cccc(C2=CCOCC2)c1OCC(F)(F)F")
"< 10 nM"

Go through the list and state IC50 for each entry.
1. Cc1cc(C#N)ccc1-c1cccc(Nc2ncc(C3CC3)nc2C(=O)NS(C)(=O)=O)c1OCC(F)(F)F
2. CCS(=O)(=O)NC(=O)c1nc(C2CC2)cnc1Nc1cccc(C2=CCOCC2)c1OCC(F)(F)F
3. CS(=O)(=O)NC(=O)c1nc(C2CC2)cnc1Nc1cccc(C2CCOCC2)c1OC(F)F
4. N#Cc1ccc(-c2cccc(Nc3ncc(C4CC4)nc3C(=O)O)c2OC(F)F)cc1
5. COS(=O)(=O)NC(=O)c1nc(C2CC2)cnc1Nc1cccc(C2=CCOCC2)c1OCC(F)(F)F
6. N#Cc1ccc(-c2cccc(Nc3ncc(C4CC4)cc3C(=O)NS(N)(=O)=O)c2OCC(F)(F)F)cc1

Result:
< 10 nM
10 to 100 nM
< 10 nM
< 10 nM
10 to 100 nM
< 10 nM
